Let's look at some Ki data for D(3) dopamine receptor (Homo sapiens) that I collected from the literature.

COMPOUND	Ki
N#CC(C#N)=Cc1cc(CN2CCN(c3ccc(Cl)cc3)CC2)c[nH]1	6950 nM
O=C(CCc1cn(CCOCCOCCOCCn2cc(CCC(=O)OC3(c4ccc(Cl)cc4)CCN(CCCC(=O)c4ccc(F)cc4)CC3)nn2)nn1)OC1(c2ccc(Cl)cc2)CCN(CCCC(=O)c2ccc(F)cc2)CC1	9.8 nM
COc1ccccc1N1CCN(CCCCCOc2ccc3ccc(=O)[nH]c3c2)CC1	3.8 nM
c1ccc(CCC2CCN(Cc3cc4ccc[nH]c-4n3)CC2)cc1	250 nM
CN(C)C[C@H]1CC2c3ccccc3Oc3ccc(Cl)cc3[C@H]2O1 (some centres undefined)	251 nM
COc1ccc2oc(C(=O)NCCC(F)CN3CCN(c4ccccc4OC)CC3)cc2c1 (centres undefined)	13.9 nM
CCOc1ccccc1N1CCN(CCCCc2cc(-c3ccccc3)no2)CC1	9 nM
Clc1ccc(N2CCN(CCCCNc3noc(-c4ccccc4)n3)CC2)c(Cl)c1	290 nM
O=C1CCc2ccccc2N1CCCN1CCN(c2ccc(Cl)cc2Cl)CC1	501 nM
